The following compounds are listed with their measured GI50 values.
# test-system: BaF3-tel/trkB cells (Homo sapiens)
# Construct: fused on or other part: P41212 (Transcription factor ETV6)
# Sequence (Q16620 whole entry, change not shown, the tested form may be a part): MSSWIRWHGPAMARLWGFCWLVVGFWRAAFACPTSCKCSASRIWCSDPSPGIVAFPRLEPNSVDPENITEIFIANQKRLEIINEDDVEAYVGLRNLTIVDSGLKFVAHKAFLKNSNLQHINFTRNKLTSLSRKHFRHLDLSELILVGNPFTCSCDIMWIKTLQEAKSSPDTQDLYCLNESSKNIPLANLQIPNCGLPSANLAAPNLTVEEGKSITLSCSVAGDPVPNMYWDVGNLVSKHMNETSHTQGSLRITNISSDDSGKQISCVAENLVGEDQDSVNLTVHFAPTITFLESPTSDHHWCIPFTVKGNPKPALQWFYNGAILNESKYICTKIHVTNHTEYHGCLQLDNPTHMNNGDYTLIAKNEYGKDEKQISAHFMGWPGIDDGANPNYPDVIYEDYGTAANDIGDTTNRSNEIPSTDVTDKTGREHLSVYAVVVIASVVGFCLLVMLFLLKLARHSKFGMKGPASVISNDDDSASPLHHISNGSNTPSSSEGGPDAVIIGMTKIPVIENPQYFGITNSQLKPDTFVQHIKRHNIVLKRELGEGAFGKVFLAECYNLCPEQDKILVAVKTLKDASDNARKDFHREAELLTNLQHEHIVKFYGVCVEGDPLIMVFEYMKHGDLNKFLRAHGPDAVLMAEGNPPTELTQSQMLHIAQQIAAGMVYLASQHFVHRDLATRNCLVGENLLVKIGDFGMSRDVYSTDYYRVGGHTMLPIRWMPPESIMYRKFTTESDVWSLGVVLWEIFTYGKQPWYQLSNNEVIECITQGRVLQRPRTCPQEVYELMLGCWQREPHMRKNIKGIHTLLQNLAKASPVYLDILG
# assay: growth inhibition, Ba/F3-tel/trkB cells
# Assay type: cell-based, murine
# test-context: read-out: IC50, Table 9
Please give a number only; it is taken to be in nM.

{"compound": "CN[C@@H]1C[C@H]2O[C@@](C)([C@@H]1OC)n1c3ccccc3c3c4c(c5c6ccccc6n2c5c31)C(=O)NC4 [Staurosporine]", "GI50 / nM": 4.2}
{"compound": "COC(=O)[C@@]1(O)C[C@H]2O[C@]1(C)n1c3ccccc3c3c4c(c5c6ccccc6n2c5c31)C(=O)NC4 [Compound K252a]", "GI50 / nM": 45.3}
{"compound": "CN1CCN(c2ccc(C(=O)Nc3n[nH]c4ccc(Cc5cc(F)cc(F)c5)cc34)c(NC3CCOCC3)c2)CC1 [entrectinib]", "GI50 / nM": 8.7}

--- query ---
Item: CC(C)Oc1cc(Nc2nc(N[C@@H](C)c3ccc(F)cn3)ncc2Cl)n[nH]1 [AZ-23] Test system: BaF3-tel/trkB cells (Homo sapiens) Read-out: GI50 Value: ? 3.3

----------
# Tested on: KM12-TPM3/trkA_G595R cells
# assay: growth inhibition screen, KM12 mutant cells with G595R
# Type: cell-based, human
# test-context: Homo sapiens; KM12-TPM3/trkA_G595R; Table 8, in μM; read-out: IC50
endpoint-name: IC50

{"smiles-data": "Cc1cc(Nc2ncc(Cl)c(Nc3ccccc3S(=O)(=O)C(C)C)n2)c(OC(C)C)cc1C1CCNCC1", "test-system": "KM12-TPM3/trkA_G595R cells", "endpoint-name": "IC50", "result": "> 1 µM"}
{"smiles-data": "C[C@@H](Oc1cc(-c2cnn(C3CCNCC3)c2)cnc1N)c1c(Cl)ccc(F)c1Cl", "test-system": "KM12-TPM3/trkA_G595R cells", "endpoint-name": "IC50", "result": "> 1 µM"}

// lookup IC50 | system=KM12-TPM3/trkA_G595R cells | key= O=C(Nc1cnn2ccc(N3CCC[C@@H]3c3cc(F)ccc3F)nc12)N1CC[C@H](O)C1 > 1 µM

----------
# System: KM12-TPM3/trkA_G667C cells
# assay: growth inhibition screen, KM12 mutant cells with G667C
# Type: cell-based, human
# test-context: Homo sapiens, KM12
endpoint-name: IC50 (nM)
# output: bare number, implied unit nM

Return reported IC50; argument: CN1CCN(c2ccc(C(=O)Nc3n[nH]c4ccc(Cc5cc(F)cc(F)c5)cc34)c(NC3CCOCC3)c2)CC1 [entrectinib] 367

----------
# Test system: KM12-TPM3/trkA_G667C cells
# assay: growth inhibition screen, KM12 mutant cells with G667C
# Type: cell-based, human
# test-context: KM12-TPM3/trkA_G667C; Table 8, cells without unit; read-out: IC50
endpoint-name: pIC50
Here pIC50 is given on a logarithmic scale as minus log10 of the concentration in mol/L.

Look up pIC50 for this compound: COC[C@@H](C)Nc1cc(N2CCN(C)CC2)ccc1C(=O)Nc1n[nH]c2ccc(S(=O)(=O)c3cc(F)cc(F)c3)cc12 6.33

----------
# System: KM12-3 nM A cells
# assay: cells
# test-context: Homo sapiens, KM12
# Experimental: Each treatment condition was performed in duplicate.
endpoint-name: pIC50
Here pIC50 is given on a logarithmic scale as minus log10 of the concentration in mol/L.

Fill blank: measured pIC50 of the molecule CN1CCN(c2ccc(C(=O)Nc3n[nH]c4ccc(Cc5cc(F)cc(F)c5)cc34)c(NC3CCOCC3)c2)CC1 is ____. 8.36

----------
# Test system: KM12-300 nM-B cells
# assay: cells
# test-context: Homo sapiens
# Procedure: Each treatment condition was performed in duplicate.
endpoint-name: IC50 (nM)
Your answer is read as nM, so omit the unit and give the number.

Give its IC50 value. Item: CN1CCN(c2ccc(C(=O)Nc3n[nH]c4ccc(Cc5cc(F)cc(F)c5)cc34)c(NC3CCOCC3)c2)CC1 209

----------
# System: KM12-100 nM A cells
# assay: cells
# test-context: Homo sapiens
endpoint-name: IC50 (nM)
Record the value in nM, omitting the unit from your answer.

For the molecule shown here, CN1CCN(c2ccc(C(=O)Nc3n[nH]c4ccc(Cc5cc(F)cc(F)c5)cc34)c(NC3CCOCC3)c2)CC1 [entrectinib] , give the reported IC50. 6.62
